Origin of the recorded values: patent US9938286B2

# experiment_description: Dynamic vapour sorption (DVS), water absorption
# Format: physicochemical
measurement_name: % abs. at 90% RH (water absorption determined by DVS) (%)

- C=C1CC[C@@]2(O)[C@H]3Cc4ccc(O)c5c4[C@@]2(CCN3CC2CC2)[C@H]1O5.O=C(O)/C=C\C(=O)O [Hydrogen maleate]: 0.2
- C=C1CC[C@@]2(O)[C@H]3Cc4ccc(O)c5c4[C@@]2(CCN3CC2CC2)[C@H]1O5.O=C(O)/C=C/C(=O)O: 0.6
- C=C1CC[C@@]2(O)[C@H]3Cc4ccc(O)c5c4[C@@]2(CCN3CC2CC2)[C@H]1O5.O=C(O)CC(=O)O: 0.35
- O=C(O)c1ccccc1O [Salicylate]: 0.4
- C=C1CC[C@@]2(O)[C@H]3Cc4ccc(O)c5c4[C@@]2(CCN3CC2CC2)[C@H]1O5.O=C(O)CCCCC(=O)O: 0.35
